tested on: barnyard grass (Echinochloa crus-galli Beauv.); experiment: Test Example 2: herbicidal effect on paddy field weeds after emergence; format: in vivo; conditions: Dosage 5 kg/ha; one-leaved stage; 21 days after treatment
Post-emergence treatment Barnyard grass (herbicidal effect) for assorted compounds

As a guide, the following entries are already answered.
compound_smiles=CCCNC(=O)c1nc2ncccc2cc1C(=O)Nc1c(CC)ccc(Cl)c1CC target_or_test_system="barnyard grass (Echinochloa crus-galli Beauv.)" measured_result="5 (Weed-killing rate is 100%.)"
compound_smiles=CCCNC(=O)c1nc2nn(C)cc2cc1C(=O)Nc1c(CC)ccc(Cl)c1CC target_or_test_system="barnyard grass (Echinochloa crus-galli Beauv.)" measured_result="5 (Weed-killing rate is 100%.)"
compound_smiles=CCCNC(=O)c1nc2onc(C)c2cc1C(=O)Nc1c(CC)ccc(Cl)c1CC target_or_test_system="barnyard grass (Echinochloa crus-galli Beauv.)" measured_result="5 (Weed-killing rate is 100%.)"

Report Post-emergence treatment Barnyard grass (herbicidal effect) for CCCNC(=O)c1nc2c(cc1C(=O)Nc1c(CC)ccc(Cl)c1CC)COCC2 please.
5 (Weed-killing rate is 100%.)

Report Post-emergence treatment Barnyard grass (herbicidal effect) for CCCNC(=O)c1nc2ccn(C)c2cc1C(=O)Nc1c(CC)ccc(Cl)c1CC please.
5 (Weed-killing rate is 100%.)

Report Post-emergence treatment Barnyard grass (herbicidal effect) for Cc1c(Cl)cccc1NC(=O)c1cc2c(nc1C(=O)NCC(C)C)OCCC2 please.
5 (Weed-killing rate is 100%.)

Report Post-emergence treatment Barnyard grass (herbicidal effect) for CCCNC(=O)c1nc2c(cc1C(=O)Nc1c(CC)ccc(Cl)c1CC)CCCS2 please.
5 (Weed-killing rate is 100%.)

Report Post-emergence treatment Barnyard grass (herbicidal effect) for CCCNC(=O)c1nc2c(cc1C(=O)Nc1c(CC)ccc(Cl)c1CC)c(C)nn2C please.
5 (Weed-killing rate is 100%.)
